Protein target, amino acids: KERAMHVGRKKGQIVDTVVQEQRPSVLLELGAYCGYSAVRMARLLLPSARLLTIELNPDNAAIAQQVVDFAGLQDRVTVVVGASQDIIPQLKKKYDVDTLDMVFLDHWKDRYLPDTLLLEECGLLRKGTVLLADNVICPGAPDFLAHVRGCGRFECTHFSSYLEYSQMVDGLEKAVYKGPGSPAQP
pIC50: −log10 of the molar value.
Quantity: pIC50

Some solved entries appear below for comparison.
> print(dat)
                                   molecule  quantity  numeric.result
1  Cc1c(O)c(=O)ccn1CCCCc1ccccc1 [Compound 5]     pIC50            5.04
2  Cc1c(O)c(=O)ccn1-c1cccc(Cl)c1 [Compound 8]     pIC50            4.95
3   Cc1c(O)c(=O)ccn1CCc1ccccc1 [Compound 3]     pIC50            4.82
4      Cc1c(O)c(=O)ccn1C1CCCC1 [Compound 7]     pIC50            4.70

a. Cc1c(O)c(=O)ccn1-c1ccc(Cl)cc1 [Compound 9]
b. Cc1ccc(C(=O)c2cc(O)c(O)c([N+](=O)[O-])c2)cc1 [Tolcapone, reference compound]
I need your help: which of the pair a , b has higher pIC50? Returns: label corresponding to the selected item.
b
(b: 8.17, a: 5.03)
